Origin of the recorded values: ChEMBL document CHEMBL1153077

# assayed system: UniProt:P04150
# Sequence (P04150 whole entry): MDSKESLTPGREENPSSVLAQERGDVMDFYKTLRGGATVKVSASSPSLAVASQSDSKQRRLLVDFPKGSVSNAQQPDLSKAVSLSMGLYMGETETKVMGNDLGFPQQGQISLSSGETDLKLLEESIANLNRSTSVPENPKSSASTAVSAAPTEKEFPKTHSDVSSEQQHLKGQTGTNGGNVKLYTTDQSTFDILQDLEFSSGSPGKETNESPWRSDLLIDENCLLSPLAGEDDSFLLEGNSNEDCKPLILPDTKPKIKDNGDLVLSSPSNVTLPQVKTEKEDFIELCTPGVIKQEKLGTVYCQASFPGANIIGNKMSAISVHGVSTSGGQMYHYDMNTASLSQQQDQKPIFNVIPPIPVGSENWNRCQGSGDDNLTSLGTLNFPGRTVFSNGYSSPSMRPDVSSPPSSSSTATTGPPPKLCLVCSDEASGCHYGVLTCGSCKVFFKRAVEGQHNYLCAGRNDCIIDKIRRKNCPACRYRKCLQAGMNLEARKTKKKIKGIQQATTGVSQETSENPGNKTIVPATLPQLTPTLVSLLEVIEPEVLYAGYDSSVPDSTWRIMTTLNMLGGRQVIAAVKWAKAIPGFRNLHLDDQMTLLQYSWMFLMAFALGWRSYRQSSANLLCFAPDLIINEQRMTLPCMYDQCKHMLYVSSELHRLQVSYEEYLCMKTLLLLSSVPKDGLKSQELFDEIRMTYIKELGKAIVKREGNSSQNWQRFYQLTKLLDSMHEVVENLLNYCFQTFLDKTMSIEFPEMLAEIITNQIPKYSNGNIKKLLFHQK
pIC50: −log10 of the molar value.
Threshold check on pIC50: at or above 9 gives fulfilled, strictly below gives not fulfilled.

| molecule | assayed system | class name |
| --- | --- | --- |
| CCN(CC(O)(CNc1cccc2c1cnn2-c1ccc(F)cc1)C(F)(F)F)C(=O)c1c(Cl)cccc1Cl (racemic) | UniProt:P04150 | fulfilled |
| CCN(CC(O)(CNC(=O)c1cnn(-c2ccccc2)c1N)C(F)(F)F)S(=O)(=O)c1ccc(F)cc1 (racemic) | UniProt:P04150 | not fulfilled |
| CCN(CC(O)(CNc1cccc2c1cnn2-c1ccc(F)cc1)C(F)(F)F)C(=O)c1ccccc1F (stereo in doubt; 32E2) | UniProt:P04150 | not fulfilled |
| CCCN(CC(O)(CNc1cccc2c1cnn2-c1ccccc1)C(F)(F)F)C(=O)c1ccccc1 (racemic) | UniProt:P04150 | not fulfilled |
| CCN(CC(O)(CNc1cccc2c1cnn2-c1ccc(F)cc1)C(F)(F)F)C(=O)c1ccccc1F (racemic) | UniProt:P04150 | fulfilled |
| CCN(CC(O)(CNc1cccc2c1cnn2-c1ccc(F)cc1)C(F)(F)F)C(=O)c1ccccc1Cl (racemic) | UniProt:P04150 | fulfilled |
| CCN(CC(O)(CNc1cc(C)cc2c1cnn2-c1ccc(F)cc1)C(F)(F)F)C(=O)c1ccccc1 (racemic) | UniProt:P04150 | fulfilled |
| CCN(CC(O)(CNc1nc(C)nc2c1cnn2-c1ccccc1)C(F)(F)F)S(=O)(=O)c1ccc(F)cc1 (racemic) | UniProt:P04150 | not fulfilled |
| CCN(CC(O)(CNc1cccc2c1cnn2-c1ccc(F)cc1)C(F)(F)F)C(=O)c1ccccc1F (stereo in doubt; 32E1) | UniProt:P04150 | fulfilled |
| CCN(CC(O)(CNc1cccc2c1cnn2-c1ccccc1)C(F)(F)F)S(=O)(=O)c1ccccc1 (racemic) | UniProt:P04150 | not fulfilled |
| CCN(CC(O)(CNc1cccc2c1cnn2-c1ccc(F)cc1)C(F)(F)F)C(=O)c1ccccc1C (racemic) | UniProt:P04150 | fulfilled |
| CCN(CC(O)(CNc1cc(C)cc2c1cnn2-c1ccc(F)cc1)C(F)(F)F)C(=O)c1ccccc1F (racemic) | UniProt:P04150 | fulfilled |

* * *

# assay remarks: Selectivity ratio of pIC50 for progesterone receptor to pIC50 for human glucocorticoid receptor
observation type: Ratio pIC50

| molecule | result |
| --- | --- |
| CCN(CC(O)(CNc1cccc2c1cnn2-c1ccc(F)cc1)C(F)(F)F)C(=O)c1c(F)cccc1F (racemic) | > 50 |
| CN(CC(O)(CNc1cccc2c1cnn2-c1ccccc1)C(F)(F)F)C(=O)c1ccccc1 (racemic) | > 50 |
| CCN(CC(O)(CNc1nc(C)nc2c1cnn2-c1ccccc1)C(F)(F)F)S(=O)(=O)c1ccc(F)cc1 (racemic) | > 50 |
